# System: COLO 205 colon
# experiment_summary: NCI tumour cell line growth inhibition, 48 h; in the data active = GI50 below about 0.43 µM; inactive = the rest
Outcomes: 1 for active, -1 for inactive

{"compound": "COc1ccc2c(c1)/C(=C/c1c(C)nc3sc(C)nn13)C(=O)N2", "class_assignment": -1}
{"compound": "CC1(C)CCc2c(c3c(c4c(=O)c(O)c(-c5ccc(O)cc5)oc24)OC(C)(C)CC3)O1", "class_assignment": -1}
{"compound": "O=C1CC(c2ccc3c(c2)OCO3)Nc2ccccc21 (stereo not given)", "class_assignment": -1}
{"compound": "CC[C@@]1(O)C[C@H](OC2CC(N(C)C)C(O)C(C)O2)c2c(O)c3c(c(O)c2[C@H]1OC1CC(N(C)C)C(O)C(C)O1)C(=O)c1cccc(O)c1C3=O (stereo not given in full)", "class_assignment": 1}
{"compound": "COc1ccc(C(=O)Cn2c(C(=O)c3ccccc3)nc(-c3ccc(OC)cc3)c2-c2ccc(OC)cc2)cc1", "class_assignment": -1}
{"compound": "Cc1c2cnccc2c(C)c2c1c1ccccc1n2CCCN", "class_assignment": 1}
{"compound": "CCCCCN(CCCCC)CCCNc1c2c(nc3ccc(Cl)cc13)CCCC2", "class_assignment": -1}
{"compound": "C=C(CN1CCN(c2ccc(Cl)cc2F)CC1)c1ccc(C(=O)Nc2ccccc2N)cc1", "class_assignment": -1}
{"compound": "O=C(/C=C/C12c3ccccc3C(c3ccccc31)C1C(=O)NC(=O)C12)c1ccncc1 (stereo not given)", "class_assignment": -1}
{"compound": "Cn1c2ccccc2c2c(Nc3ccccc3)c3ccccc3nc21", "class_assignment": -1}

###

# Test system: MDA-N
# experiment_summary: NCI tumour cell line growth inhibition, 48 h
The following molecules are listed with their measured TGI values.
parameter_measured: TGI

{"molecule": "CCC[C@@H](O)C[C@@H]1CCC[C@H](C[C@@H](O)CC)N1C", "parameter_measured": "TGI", "result": "> 100 µM"}
{"molecule": "CC(=O)O[C@H]1C(=O)[C@]2(C)[C@@H](OC(=O)OCCC(O)CO)C[C@H]3OC[C@@]3(OC(C)=O)[C@H]2[C@H](OC(=O)c2ccccc2)[C@]2(O)C[C@H](OC(=O)[C@H](O)[C@@H](NC(=O)c3ccccc3)c3ccccc3)C(C)=C1C2(C)C (stereo not given in full)", "parameter_measured": "TGI", "result": "< 0.01 µM"}
{"molecule": "Oc1ccc(-c2nc(-c3cccnc3)c(-c3ccc(F)cc3)[nH]2)cc1", "parameter_measured": "TGI", "result": "37.5 µM"}
{"molecule": "O=C1C(=Cc2ccc(O)cc2)N=C(c2ccccc2)N1n1c(-c2ccccc2)nc2ccccc2c1=O", "parameter_measured": "TGI", "result": "> 100 µM"}
{"molecule": "COc1ccc(N2C(=O)C3c4[nH]c5ccccc5c4C4CCC(C(C)(C)C)CC4C3C2=O)c(C)c1 (stereo not given)", "parameter_measured": "TGI", "result": "> 100 µM"}
{"molecule": "CCNC(=S)N/N=C/c1cc([N+](=O)[O-])ccc1O", "parameter_measured": "TGI", "result": "> 100 µM"}
{"molecule": "COc1cc(/C=C/C(=N\\NS(=O)(=O)c2ccc(C)cc2)c2sc(NNC(C)=O)nc2C)ccc1O", "parameter_measured": "TGI", "result": "> 100 µM"}
{"molecule": "Cc1cccc(/C=N/NC(=S)Nc2ccccc2)n1", "parameter_measured": "TGI", "result": "> 100 µM"}
{"molecule": "C[C@@]12C[C@@H](c3ccccc3O1)N1CCCCSC1=N2", "parameter_measured": "TGI", "result": "> 100 µM"}
{"molecule": "N#CC1=C(N)N(c2ccccc2)C(c2ccco2)C1(C#N)C#N (stereo not given)", "parameter_measured": "TGI", "result": "> 100 µM"}
{"molecule": "Nc1ccccc1SC(C[N+](=O)[O-])c1ccc2c(c1)OCO2 (stereo not given)", "parameter_measured": "TGI", "result": "4.63 µM"}
{"molecule": "Cc1ccsc1/C=N/Nc1ncccn1", "parameter_measured": "TGI", "result": "> 100 µM"}
{"molecule": "CC[C@@]1(O)C(=O)OCc2c1cc1n(c2=O)Cc2c-1nc1ccccc1c2/C=N\\NC(=O)CN", "parameter_measured": "TGI", "result": "> 100 µM"}
{"molecule": "CC[C@@]1(C[C@H]2C[C@@]3(C(=O)OC)c4[nH]c5ccccc5c4CCN3C2=O)COC2(CCCCC2)O1", "parameter_measured": "TGI", "result": "> 100 µM"}
{"molecule": "O=[N+]([O-])C(=C1NCCN1)/C(Cl)=C(\\Cl)Br", "parameter_measured": "TGI", "result": "> 100 µM"}
{"molecule": "O=C(O)CSc1ccc([N+](=O)[O-])cc1[N+](=O)[O-]", "parameter_measured": "TGI", "result": "> 100 µM"}
{"molecule": "CC1=CC2C(O1)C1C(=O)C=CC(=O)C1=CC2[N+](=O)[O-] (stereo not given)", "parameter_measured": "TGI", "result": "65.8 µM"}
{"molecule": "O=C(NNC(=O)c1ccccc1SSc1ccccc1C(=O)NNC(=O)c1ccccc1S)c1ccccc1S", "parameter_measured": "TGI", "result": "> 100 µM"}
{"molecule": "O=C1C=C(Cl)C(=O)C(c2ccc(Cl)cc2)=C1", "parameter_measured": "TGI", "result": "27.5 µM"}
{"molecule": "O=C1/C(=C/c2ccc(O)cc2)CC/C1=C\\c1ccc(O)cc1", "parameter_measured": "TGI", "result": "> 100 µM"}
